Please find below pIC50 measurements for Dual specificity protein phosphatase 3 (Homo sapiens, UniProt P51452), combined from several publications.
pIC50: −log10 of the molar value.
metric name: pIC50

Consider the following illustrative entries.
CC1=CC[C@H]2C(C)(C)CCC[C@]2(C)[C@H]1CC(O)CCc1ccccc1 (stereo not given in full): 4.35
Cc1ccc(C(=O)/C=C/c2ccc(C(=O)Nc3ccc(S(=O)(=O)Nc4nccs4)cc3)cc2)cc1: 5.05
O=C(O)c1cc2c(/C=C\c3ccc(OC(F)(F)F)cc3)c(-c3ccccc3)oc2cc1O: 5.24

A. CCCCCCCCCCCCCCCC(NCc1ccccc1OC)=C1C(=O)OC(CO)C1=O (mixture of isomers)
B. CCCCCCCCCCCCCCCC(NCc1cccc(O)c1)=C1C(=O)OC(CO)C1=O (mixture of isomers)
C. O=C(O)c1ccc(N2C(=O)/C(=C/c3ccccc3)SC2=S)cc1O
Give the ascending ranking of the items by reported pIC50. Returns: the labels listed in the requested order.
C, B, A
